system: IL8; assay: inhibitors of NFkB activation in CF airway cells, SAR follow-up, KKLEB cells, panel, IL8 HTRF, NFkB-GFP (AID 651592); conditions: PAF/TNFa-induced NFkB-GFP / IL8 HTRF, TNFa-induced, mean of runs, mean IC50 across panel replicates;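 note: immortalized cystic fibrosis airway epithelial KKLEB cells with an NF-kB GFP reporter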
pIC50: −log10 of the molar value.
Reported Property: pIC50

Sample answers from the record:
Record Smiles | Test Result
O=C(Nc1ccc(N2CCN(C(=O)c3ccc(F)cc3)CC2)cc1)c1cncc(Br)c1 | 4.30
O=C(Nc1ccc(N2CCN(C(=O)c3ccccc3)CC2)cc1)c1cccnc1 | < 4.18
O=C(Nc1ccc(N2CCN(C(=O)c3ccccc3)CC2)cc1)c1ccccn1 | < 4.18
O=C(Nc1ccc(N2CCN(C(=O)c3ccccc3)CC2)cc1)c1ccccc1 | < 4.18
O=C(Nc1ccc(N2CCN(C(=O)c3ccccc3F)CC2)cc1)c1cccnc1 | < 4.18

response.value for CCOc1ccc(NCc2cc3c(C(C)(C)C)nn(-c4ccccc4)c3[nH]c2=O)cc1 (field: pIC50) = < 4.18

response.value for O=C(Nc1ccc(N2CCN(C(=O)c3ccc(F)cc3)CC2)cc1)c1ccccc1 (field: pIC50) = < 4.18
